- experimentalSystem: T1, serum purified human Complement Factor D (human, UniProt P00746 26-253)
- T1 construct: Serum purified protein flowed over the captured antibodies; also called CFD; human CFD
- T1 sequence (P00746 26-253): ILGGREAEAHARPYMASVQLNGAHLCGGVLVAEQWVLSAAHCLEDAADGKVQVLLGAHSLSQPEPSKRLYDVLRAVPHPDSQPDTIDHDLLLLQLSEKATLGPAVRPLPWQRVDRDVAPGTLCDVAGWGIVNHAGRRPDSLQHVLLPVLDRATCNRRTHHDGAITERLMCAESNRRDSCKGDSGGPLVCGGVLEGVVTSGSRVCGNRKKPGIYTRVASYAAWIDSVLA
- testName: SPR Biacore, 25 C
readoutKind: koff (s⁻¹)
Give bare numbers, in s⁻¹.

A selection of reference data follows.
input: Looking for the measured koff of 31S34I54I59D / 54R101V (antibody, V domains shown, KCD119 TAF variant) VH: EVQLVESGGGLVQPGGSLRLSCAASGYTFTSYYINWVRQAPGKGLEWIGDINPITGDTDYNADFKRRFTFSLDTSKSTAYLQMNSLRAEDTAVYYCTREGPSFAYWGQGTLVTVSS VL: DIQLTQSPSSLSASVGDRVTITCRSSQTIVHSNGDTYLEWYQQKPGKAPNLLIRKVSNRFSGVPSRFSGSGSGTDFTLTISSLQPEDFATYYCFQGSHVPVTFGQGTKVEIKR , can you help?
output: 7.84e-05

input: Now the binder 31S54I59D / 54R101V (antibody, V domains shown, KCD119 TAF variant) VH: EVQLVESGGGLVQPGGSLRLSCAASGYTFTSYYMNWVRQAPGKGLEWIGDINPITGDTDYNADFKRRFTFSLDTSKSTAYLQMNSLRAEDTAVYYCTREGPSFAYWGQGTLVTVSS VL: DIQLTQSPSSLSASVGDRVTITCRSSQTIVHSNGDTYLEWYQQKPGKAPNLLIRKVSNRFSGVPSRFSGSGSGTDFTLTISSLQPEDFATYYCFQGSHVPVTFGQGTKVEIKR
output: 0.00012

input: Now the binder 54I59D / 54R101V (antibody, V domains shown, KCD119 TAF variant) VH: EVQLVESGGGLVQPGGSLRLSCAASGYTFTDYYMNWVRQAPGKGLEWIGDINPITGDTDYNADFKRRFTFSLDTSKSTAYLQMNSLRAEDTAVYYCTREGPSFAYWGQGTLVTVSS VL: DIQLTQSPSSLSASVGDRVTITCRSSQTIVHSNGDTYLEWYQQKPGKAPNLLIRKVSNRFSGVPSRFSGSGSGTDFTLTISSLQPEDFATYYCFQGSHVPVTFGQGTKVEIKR
output: 9.8e-05

Turning to the following binder.
input: Looking for the measured koff of 34I54I59D / 54R101V (antibody, V domains shown, KCD119 TAF variant) VH: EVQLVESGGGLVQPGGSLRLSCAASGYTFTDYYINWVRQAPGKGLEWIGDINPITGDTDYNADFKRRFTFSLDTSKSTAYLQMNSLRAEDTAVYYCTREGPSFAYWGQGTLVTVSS VL: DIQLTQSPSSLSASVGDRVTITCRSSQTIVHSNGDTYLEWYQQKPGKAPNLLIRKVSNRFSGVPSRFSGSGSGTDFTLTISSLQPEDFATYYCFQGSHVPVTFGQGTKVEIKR , can you help?
output: 0.000101
